study_target: BRD4 (Homo sapiens)
measurement_protocol: Live cell kinetic HiBiT degradation assay, HiBiT-BRD4 HEK293 cells (parental, CRBN KO, VHL KO)
Format: cell-based
condition_set: HiBiT-BRD4 knock-in HEK293 cells
assay_metric: λmax BRD4 (degradation rate) (h⁻¹)
Response body: numeric value in h⁻¹, unit text excluded.

{"compound": "Cc1ncsc1-c1ccc(CNC(=O)[C@@H]2C[C@@H](O)CN2C(=O)[C@@H](NC(=O)COCC(C)(COCCOCCOCCOC(=O)C[C@@H]2N=C(c3ccc(Cl)cc3)c3c(sc(C)c3C)-n3c(C)nnc32)COCCOCCOCCN2CCN(c3cc4c(cc3F)C(=O)N(C3CCC(=O)NC3=O)C4=O)CC2)C(C)(C)C)cc1 (mixture of isomers)", "study_target": "BRD4 (Homo sapiens)", "output_unit": "h⁻¹", "recorded_value": 2.19}

Prompt: Request body: readout λmax BRD4 (degradation rate), system BRD4 (Homo sapiens), query Cc1ncsc1-c1ccc(CNC(=O)[C@@H]2C[C@@H](O)CN2C(=O)[C@@H](NC(=O)COCC(C)(COCCOCCNc2cc3c(cc2F)C(=O)N(C2CCC(=O)NC2=O)C3=O)COCCOCCOCCOC(=O)C[C@@H]2N=C(c3ccc(Cl)cc3)c3c(sc(C)c3C)-n3c(C)nnc32)C(C)(C)C)cc1 (mixture of isomers) . Return the value.
Response: 1.69
